- System: Cryptococcus neoformans
- assay_explanation: Antifungal activity against Cryptococcus neoformans ATCC 32264 incubated for 48 hrs under dark condition by broth microdilution method
- Type: functional
- test_settings: ATCC 32264, 48 h
Below, each of the compounds is paired with its reported MIC50 value.
endpoint: MIC50

INSERT INTO assay_data (compound, endpoint, result) VALUES
  ('Cc1ccc(C2=NN(c3cc(Cl)cc(Cl)c3)C(c3cccc(Nc4ccnc5cc(Cl)ccc45)c3)C2)cc1 (stereo not drawn)', 'MIC50', '≥ 250 mg/L'),
  ('COc1ccc(C2=NN(c3ccccc3)C(c3cccc(Nc4ccnc5cc(Cl)ccc45)c3)C2)cc1 (stereo not drawn)', 'MIC50', '≥ 250 mg/L'),
  ('COc1ccc(C2=NN(c3cc(Cl)cc(Cl)c3)C(c3cccc(Nc4ccnc5cc(Cl)ccc45)c3)C2)cc1 (stereo not drawn)', 'MIC50', '≥ 250 mg/L');
